Experiment: NCI Yeast Anticancer Drug Screen. Data for the mlh1 strain (AID 171);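 further: 0% = growth of vehicle-treated control cultures of the same strain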
Conditions: S. cerevisiae mlh1 strain growth inhibition; at 11.0 µM; hits give high values
This is part of a sample that, as a whole, favours compounds with a hit. Of some 79,000 tested, about 15% had one in any assay. Active and inactive are the calls of the source. No stated cut-off is given here; in the data, active means growth inhibition above about 70%; inactive means the rest.
Form field: growth inhibition (one value per entry).

Before answering, review these 3 worked examples.
compound | endpointResult
C(CCSC1=NCCN1)CSC1=NCCN1 (tested in a mixture with another compound) | 83% (active)
C[S+](C)C1(c2ccccc2)C(=O)c2ccccc2C1=O | 0% (inactive)
Cc1c(C(=O)C(=O)c2ccccc2)c(C)c(C(=O)C(=O)c2ccccc2)c(C)c1C(=O)C(=O)c1ccccc1 | 1% (inactive)

Turning now to a further record.
The recorded growth inhibition for entry O=C(Nc1ccccc1)C(=O)C(C(=O)c1ccccc1)C(c1ccccc1)c1ccccc1 (configuration not stated) equals 3% (inactive)
